tested on: UO-31 renal; test: NCI tumour cell line growth inhibition, 48 h
measurement_type: log10(TGI) (log10 of the value in µM)
Remember, log10 of TGI, in µM.

Endpoint output: log10(TGI) of CC(C)Oc1ccc(CNC2=NCCO2)c2ccccc12 . Value?
1.26

Likewise for COc1cc([C@@H]2c3cc4c(cc3[C@@H](NCc3ccccc3)C3COC(=O)[C@@H]32)OCO4)cc(OC)c1O (some centres undefined) ?
1.25

// next record CC(=O)O[C@H]1CC[C@]2(C)[C@H]3CC=C4[C@@H]5CC(C)(C)CC[C@]5(C(=O)NCCNCCN)CC[C@@]4(C)[C@]3(C)CC[C@H]2C1(C)C
0.44

Can you handle COc1cc(/C=C/c2ccc(OC(C)=O)cc2)cc(OC)c1OC next?
1.75

Also check CCCN(CCC)c1cc2c(cc1F)c(=O)c(C(=O)O)cn2-c1ccc(N2CCN(C)CC2)cn1
1.51

Try this molecule too: C[C@]12CCC3c4ccc(O)cc4CCC3C1Cc1ccc(O)cc12 (some centres undefined)
1.46

Follow-up entry: COC(=O)[C@]12CCC(C)(C)C[C@H]1C1=CC[C@@H]3[C@@]4(C)CC[C@H](OC5OC(CO)C(O)C(O)C5OC5OC(CO)C(O)C(O)C5O)C(C)(C)[C@@H]4CC[C@@]3(C)[C@]1(C)CC2 (some centres undefined)
1.04

// same read-out, input: CN1C(=O)c2c(c3c4ccccc4n(C4OC(CO)C(O)C(O)C4O)c3c3[nH]c4ccccc4c23)C1=O (centres undefined)
0.82

Now the same for COc1ccc(/C=C/C(=O)c2ccc3cc(OC)c(OC)cc3c2)cc1OC
1.10

Same again, this time with Cc1ncc(C(=O)Nc2ccc(CN3CCN(C)CC3)c(C(F)(F)F)c2)cc1C#Cc1cnc(N)c2ncccc12
-0.11

Now the same for Nc1ccc2cc3[nH]c4cc(N)ccc4c3nc2c1
-0.18

Follow-up entry: O=C1CSC(c2ccc(Cl)cc2)N1c1ccc(-c2ccc(-n3c(-c4ccccc4)nc4ccccc4c3=O)cc2)cc1 (centres undefined)
1.77
